- measurement.target: human FXR (NR1H4) (Homo sapiens (Human), UniProt Q96RI1)
- Sequence (Q96RI1 whole entry, the tested form may be a part): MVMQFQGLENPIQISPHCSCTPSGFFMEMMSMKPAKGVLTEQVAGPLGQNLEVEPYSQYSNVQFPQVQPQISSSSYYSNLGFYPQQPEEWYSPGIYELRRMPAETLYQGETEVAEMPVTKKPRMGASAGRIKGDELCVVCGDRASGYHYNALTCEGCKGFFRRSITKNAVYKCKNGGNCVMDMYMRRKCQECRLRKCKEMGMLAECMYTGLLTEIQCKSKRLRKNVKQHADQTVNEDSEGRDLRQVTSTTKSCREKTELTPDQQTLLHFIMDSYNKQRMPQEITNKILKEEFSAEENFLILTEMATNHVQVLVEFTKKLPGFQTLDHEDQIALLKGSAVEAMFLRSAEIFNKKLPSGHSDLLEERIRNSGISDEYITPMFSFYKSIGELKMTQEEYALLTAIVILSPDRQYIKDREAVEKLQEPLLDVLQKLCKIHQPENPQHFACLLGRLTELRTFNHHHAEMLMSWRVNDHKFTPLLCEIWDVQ
- test: Human FXR (NR1H4) Assay (Gal4 promoter driven luciferase reporter, Indigo Bioscience kit)
- Assay type: cell-based
- experimental.parameters: CHO reporter cells expressing human NR1H4; normalized to CDCA set as 100%
Strictly below 200% in Efficacy (%): condition met. Otherwise: condition not met.

[
  {
    "molecule": "CN(C)S(=O)(=O)NC(=O)c1ccc(N2C3CC[C@H]2CC(OCc2c(-c4c(Cl)cccc4Cl)noc2C2CC2)C3)c(F)c1 (stereo partly drawn) [Example 4]",
    "measurement.target": "human FXR (NR1H4) (Homo sapiens (Human), UniProt Q96RI1)",
    "assigned.category": "condition met"
  },
  {
    "molecule": "CC(C)(C)c1ccc(S(=O)(=O)NC(=O)c2ccc3nc(N4C5CC[C@H]4CC(OCc4c(-c6c(Cl)cccc6Cl)noc4C4CC4)C5)sc3c2)cc1 (stereo partly drawn) [Example 3]",
    "measurement.target": "human FXR (NR1H4) (Homo sapiens (Human), UniProt Q96RI1)",
    "assigned.category": "condition not met"
  },
  {
    "molecule": "CC(C)(C)c1ccc(S(=O)(=O)NC(=O)c2ccc(N3C4CC[C@H]3CC(OCc3c(-c5c(Cl)cccc5Cl)noc3C3CC3)C4)c(F)c2)cc1 (stereo partly drawn) [Example 5]",
    "measurement.target": "human FXR (NR1H4) (Homo sapiens (Human), UniProt Q96RI1)",
    "assigned.category": "condition met"
  },
  {
    "molecule": "O=C(NS(=O)(=O)C1CC1)c1ccc(N2C3CC[C@H]2CC(OCc2c(-c4c(Cl)cccc4Cl)noc2C2CC2)C3)c(F)c1 (stereo partly drawn) [Example 6]",
    "measurement.target": "human FXR (NR1H4) (Homo sapiens (Human), UniProt Q96RI1)",
    "assigned.category": "condition met"
  }
]
